Source: PubChem BioAssay

- measured-target: Neurogenic locus notch homolog protein 3 (Homo sapiens)
- method-notes: small molecules binding NOTCH3 protein – biochemical, 635/667 nm fluorescence, primary screen (AID 1096)
- measurement-parameters: small-molecule microarray, 635 nm fluorescence, higher = more signal
Mark T for reported composite z-score of 1 or greater; mark F for anything smaller.

C=C(C(=O)CC[C@@H](OC(=O)c1cccnc1)c1ccc(CO)o1)C(C)C :: T
[N-]=[N+]=Nc1ccccc1[C@@H]1OC(c2ccc(OCCCO)cc2)=N[C@]1(CCS(=O)(=O)c1ccccc1)C(=O)N1CCCCC1 :: T
C=CCOC(=O)[C@H]1[C@@H]2C(=O)O[C@@H](c3ccccc3)[C@@H](c3ccccc3)N2[C@@H](c2ccc(OCCOC(=O)[C@H]3C[C@H]4C(=O)N[C@@H](CCCC[N+](C)(C)C)C(=O)N4[C@H]3c3ccc(O)cc3)cc2)[C@]12C(=O)Nc1ccccc12 :: F
COCCOC(=O)N1C(=O)[C@@]2(c3ccccc31)[C@H](C(=O)N1CCCCCCC1)[C@H]1C(=O)O[C@H](c3ccccc3)[C@H](c3ccccc3)N1[C@@H]2c1ccccc1OCCO :: T
O=C(NCc1ccccc1)[C@@H]1c2ccccc2C(=O)N(C2CCCCC2)[C@H]1c1ccc(CO)cc1 :: T

* * *

- measured-target: Neurogenic locus notch homolog protein 2 (Homo sapiens) (UniProt Q04721)
- Sequence (Q04721 whole entry, looked up): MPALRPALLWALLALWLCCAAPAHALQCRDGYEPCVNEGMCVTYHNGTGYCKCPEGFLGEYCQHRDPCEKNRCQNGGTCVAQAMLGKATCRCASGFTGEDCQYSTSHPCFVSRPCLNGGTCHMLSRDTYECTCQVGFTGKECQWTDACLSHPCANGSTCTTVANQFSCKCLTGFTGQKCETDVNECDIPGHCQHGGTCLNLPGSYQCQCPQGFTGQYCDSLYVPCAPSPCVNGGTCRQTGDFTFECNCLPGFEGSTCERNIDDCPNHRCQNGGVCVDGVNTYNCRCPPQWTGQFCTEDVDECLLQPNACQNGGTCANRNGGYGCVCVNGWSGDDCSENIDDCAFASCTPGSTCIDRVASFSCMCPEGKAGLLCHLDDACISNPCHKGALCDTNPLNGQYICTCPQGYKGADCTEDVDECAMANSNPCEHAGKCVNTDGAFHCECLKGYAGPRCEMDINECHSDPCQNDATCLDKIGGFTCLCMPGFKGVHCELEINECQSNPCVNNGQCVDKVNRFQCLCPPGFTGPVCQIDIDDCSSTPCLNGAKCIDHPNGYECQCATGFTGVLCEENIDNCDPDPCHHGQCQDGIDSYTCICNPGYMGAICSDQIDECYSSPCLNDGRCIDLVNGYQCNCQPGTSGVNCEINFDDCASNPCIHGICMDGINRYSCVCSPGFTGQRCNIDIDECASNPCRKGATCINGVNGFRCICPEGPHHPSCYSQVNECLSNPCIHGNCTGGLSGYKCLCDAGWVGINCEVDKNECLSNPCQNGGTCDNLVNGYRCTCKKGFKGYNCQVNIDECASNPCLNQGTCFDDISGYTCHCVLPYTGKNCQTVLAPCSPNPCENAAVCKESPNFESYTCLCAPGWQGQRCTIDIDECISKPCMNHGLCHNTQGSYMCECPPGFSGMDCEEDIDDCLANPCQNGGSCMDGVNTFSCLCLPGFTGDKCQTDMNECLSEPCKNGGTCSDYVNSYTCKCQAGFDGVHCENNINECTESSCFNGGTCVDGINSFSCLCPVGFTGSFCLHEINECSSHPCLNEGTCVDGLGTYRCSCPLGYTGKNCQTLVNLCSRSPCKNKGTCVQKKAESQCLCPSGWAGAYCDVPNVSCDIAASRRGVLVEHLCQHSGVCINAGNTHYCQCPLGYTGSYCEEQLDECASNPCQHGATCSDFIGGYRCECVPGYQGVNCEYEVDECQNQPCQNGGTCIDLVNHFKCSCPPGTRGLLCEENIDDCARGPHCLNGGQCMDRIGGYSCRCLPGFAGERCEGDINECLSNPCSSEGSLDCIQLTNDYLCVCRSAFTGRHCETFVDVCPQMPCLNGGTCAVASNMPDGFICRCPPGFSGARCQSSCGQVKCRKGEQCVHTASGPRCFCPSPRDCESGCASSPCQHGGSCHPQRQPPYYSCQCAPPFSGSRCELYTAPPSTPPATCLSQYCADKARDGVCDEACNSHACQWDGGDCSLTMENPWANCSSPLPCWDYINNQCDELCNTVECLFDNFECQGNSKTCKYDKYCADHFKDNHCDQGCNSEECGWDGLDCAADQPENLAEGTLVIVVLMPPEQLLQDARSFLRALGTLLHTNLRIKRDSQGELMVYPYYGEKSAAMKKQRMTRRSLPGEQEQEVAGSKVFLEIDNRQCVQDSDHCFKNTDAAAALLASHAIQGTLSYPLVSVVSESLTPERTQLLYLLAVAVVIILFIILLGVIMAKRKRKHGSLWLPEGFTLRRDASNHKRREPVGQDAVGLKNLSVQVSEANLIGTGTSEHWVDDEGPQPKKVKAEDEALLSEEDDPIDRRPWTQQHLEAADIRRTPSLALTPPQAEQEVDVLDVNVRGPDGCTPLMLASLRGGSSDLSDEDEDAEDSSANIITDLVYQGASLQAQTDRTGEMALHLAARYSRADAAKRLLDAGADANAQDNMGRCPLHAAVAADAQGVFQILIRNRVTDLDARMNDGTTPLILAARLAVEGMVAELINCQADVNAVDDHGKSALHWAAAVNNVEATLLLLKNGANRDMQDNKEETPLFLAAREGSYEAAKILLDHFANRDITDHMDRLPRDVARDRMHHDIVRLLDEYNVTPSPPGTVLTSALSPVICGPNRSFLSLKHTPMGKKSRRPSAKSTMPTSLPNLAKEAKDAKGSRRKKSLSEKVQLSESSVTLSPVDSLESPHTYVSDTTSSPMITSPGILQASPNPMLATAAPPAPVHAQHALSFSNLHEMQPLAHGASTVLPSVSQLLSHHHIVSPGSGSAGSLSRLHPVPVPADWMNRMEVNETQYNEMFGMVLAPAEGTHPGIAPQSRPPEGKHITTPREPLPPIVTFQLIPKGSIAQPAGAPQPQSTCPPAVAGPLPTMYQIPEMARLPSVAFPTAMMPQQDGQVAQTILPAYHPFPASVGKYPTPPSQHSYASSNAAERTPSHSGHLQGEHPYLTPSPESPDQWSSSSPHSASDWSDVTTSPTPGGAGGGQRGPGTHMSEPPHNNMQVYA
- method-notes: small molecules binding Notch2 protein – biochemical, small-molecule microarray, 635 nm fluorescence, stem cell growth factors, primary screen (AID 1073)
- measurement-parameters: higher = more signal
# class assignment by measured composite z-score: class A = under 0.1, class B = from 0.1 up to 0.6, class C = 0.6 and over

O=c1cccc(-c2ccccc2)o1 :: class B
CN1C(=O)C2C(C1=O)C1C=C(c3ccc(CO)cc3)C2C(C2CC2)N1Cc1sc2ccccc2c1Cl (stereo not drawn) :: class C
CCOC(=O)C[C@H]1[C@H](OC(=O)c2ccccc2-c2ccccc2)[C@@H](NC(=O)c2ccc(-c3ccccc3)cc2)c2cc(OCCCO)ccc2N1C(=O)c1ccccc1 :: class B
CCOC(=O)C1=CC[C@@H](c2ccccc2)N(S(=O)(=O)c2ccc(C)cc2)[C@H]1c1ccc(C#N)cc1 :: class C
COC(=O)[C@@]1(Cc2ccc(OC)cc2)[C@H]2c3cc(C(=O)N(C)C)n(CCSCCO)c3C[C@H]2CN1C(=O)c1ccccc1 :: class C
Cc1ccc(S[C@]2(C(=O)NCCCN(C)C)CC(=O)N(Cc3ccccc3)[C@@H]2c2ccc(CO)cc2)cc1 :: class A
C=C(COC)/C(=C/C[C@H](OC(C)=O)c1ccccc1OCCO)c1cnc2ccccc2c1 :: class C
CCOC(=O)C=Cc1cccc(OC)c1O :: class A
CN(C)CCCN1C(=O)[C@@]2(c3ccc([N+](=O)[O-])cc3)CC(=O)N(C3CCCCC3)[C@@H]2c2ccc(CO)cc21 :: class B
CC(C)C[C@@H]1NC(=O)[C@@H]2C[C@H](C(=O)NCCCCN(C)C)[C@H](c3ccc(O)cc3)N2C1=O :: class A
CC(C)C(CO)N1C(=O)[C@@H]2[C@H]3C(=O)OCC=C[C@H]3OC23C=CCN(c2ccc4ccccc4c2)C(=O)[C@@H]13 (stereo partly drawn) :: class A
C=C(CCCC)C(=O)CC[C@@H](OC(=O)c1ccccc1-c1ccccc1C(=O)O)c1ccc(CO)o1 :: class C

* * *

Entries annotated with measured composite z-score
- Test system: Human papillomavirus type 1a E7 protein (residues 1-88)
- method-notes: HPV1a E7 small-molecule binders, primary screen, biochemical, small-molecule microarray, residues 1-88, 635 nm (AID 1129)
- measurement-parameters: small-molecule microarray binding, fluorescence 635 nm; higher = more signal
endpoint-name: composite z-score

COC(=O)c1nc2oc1CC[C@@H](CO)NC(=O)N(C)Cc1cn(nn1)C[C@H](Cc1ccccc1)NC2=O :: -0.151
O=C1O[C@@H](c2ccccc2)[C@@H](c2ccccc2)N2[C@@H](c3ccc(O)cc3)[C@]3(C(=O)Nc4ccccc43)[C@@H](C(=O)NC[C@H](O)c3ccccc3)[C@H]12 :: -0.366
NC(=O)NCC#Cc1ccc2c(c1)[C@]1(C(=O)N2)[C@H](c2ccccc2OCCO)N2[C@H](c3ccccc3)[C@H](c3ccccc3)OC(=O)[C@H]2[C@@H]1C(=O)N1CCCCCCC1 :: 1.25
COCCOC(=O)N1C(=O)[C@@]2(c3cc(C#CCC(C(=O)OC)C(=O)OC)ccc31)[C@H](c1ccccc1OCCO)N1[C@H](c3ccccc3)[C@H](c3ccccc3)OC(=O)[C@H]1[C@@H]2C(=O)Nc1nc2ccccc2s1 :: 0.946
COCCCNC(=O)[C@@]1(Sc2ccc(C)cc2)CC(=O)N(Cc2ccccc2)[C@@H]1c1ccc(CO)cc1 :: -0.277
C[C@]1(C(=O)NCC(F)(F)F)c2ccccc2C(=O)N(Cc2cc(F)cc(C(F)(F)F)c2)[C@H]1c1ccc(CO)cc1 :: 0.105

* * *

- Test system: Wnt5a (protein binding on small-molecule microarray)
- method-notes: small molecules binding Wnt5a protein – biophysical, small-molecule microarray, 635/667 nm fluorescence, primary screen (AID 1142);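 also: fluorescence read at 667 nm with signal to noise per printed feature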
- measurement-parameters: 635 nm fluorescence, higher = more signal
Entries annotated with measured composite z-score
endpoint-name: composite z-score

C=C(CCCC)C(=O)CC[C@H](OC(=O)c1ccccc1-c1ccccc1C(=O)O)c1ccc(CO)o1 :: 0.123
CCCCCN1CC=CC23O[C@@H]4C=CCCOC(=O)C4[C@H]2C(=O)N(CCCO)[C@@H]3C1=O (stereo not given in full) :: -0.309
CCCCCCCCCCC(O)C1C=CC2C(=O)N(c3ccccc3)C(=O)C2N1Nc1ccc([N+](=O)[O-])cc1 (stereo not given) :: 0.207
[N-]=[N+]=NCc1ccccc1C[C@]1(C(=O)N2CCOCC2)N=C(c2ccc(OCCCO)cc2)O[C@H]1c1ccccc1 :: 0.258
Cc1ccc(S[C@]2(C(=O)NCc3ccccc3)CC(=O)N(Cc3cc(C(F)(F)F)cc(C(F)(F)F)c3)[C@@H]2c2ccc(CO)cc2)cc1 :: -0.492
O=C1C[C@@](C(=O)O)(c2ccc([N+](=O)[O-])cc2)[C@@H](c2ccc(CO)cc2I)N1CC12CC3CC(CC(C3)C1)C2 :: 0.0743
CC1(C)C(=O)C(c2ccccc2)=C2CN3C(=O)N(CCc4ccccc4)C(=O)C3(Cc3ccccc3)C=C21 (stereo not given) :: 0.114
CC(C)(C)OC(=O)CC[C@@]1(C(N)=O)N=C(c2ccc(OCCCO)cc2)O[C@@H]1c1ccccc1N=[N+]=[N-] :: 0.672
C=C(CCCC)C(=O)CC[C@@H](OC(=O)c1ccccc1-c1ccccc1C(=O)O)c1ccc(CO)o1 :: 0.233
COCCOC(=O)N1C(=O)[C@@]2(c3cc(C#CCCO)ccc31)[C@H](C(=O)NC[C@H](O)c1ccccc1)[C@H]1C(=O)O[C@H](c3ccccc3)[C@H](c3ccccc3)N1[C@@H]2c1ccc(OCCO)cc1 :: 0.041
CO[C@H]1O[C@H](CO)[C@@H](OC(=O)Nc2ccc3c(c2)OCO3)[C@H](OC(=O)Nc2ccc3c(c2)OCO3)[C@H]1OC(=O)Nc1ccc2c(c1)OCO2 :: 0.158
COCCn1c(C(=O)N(C)C)cc2c1C[C@H]1CN(C(=O)c3ccccc3)[C@@](Cc3ccc(F)cc3)(C(=O)OC)[C@@H]21 :: 0.304
Cc1ccc(N2C(=O)c3ccccc3[C@@H](C(=O)NCC(C)C)[C@@H]2c2ccc(CO)cc2)nc1 :: -0.0957
[N-]=[N+]=Nc1ccccc1C[C@]1(C(=O)N2CCCCC2)N=C(c2ccc(OCCCO)cc2)O[C@H]1c1ccccc1N=[N+]=[N-] :: 0.316
[N-]=[N+]=Nc1ccccc1[C@@H]1OC(c2ccc(OCCCO)cc2)=N[C@]1(CCS(=O)(=O)c1ccccc1)C(=O)O :: 0.301

* * *

Entries annotated with measured composite z-score
- Test system: Sonic hedgehog protein (Shh)
- method-notes: Sonic hedgehog microarray binding compounds – biochemical, small-molecule microarray, 635/667 nm fluorescence, primary screen (AID 1151);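 also: Shh protein binding to compounds spotted on small-molecule microarray slides; score combines spot fluorescence intensity with signal-to-noise across triplicate slides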
- measurement-parameters: 635 nm fluorescence, higher = more signal
endpoint-name: composite z-score

C=CCNC(=O)[C@H]1[C@@H]2C(=O)O[C@@H](c3ccccc3)[C@@H](c3ccccc3)N2[C@@H](c2ccc(O)cc2)[C@]12C(=O)Nc1ccc(C#Cc3ccc(OC)cc3)cc12 :: 0.667
CC(=O)NCCCC[C@@H]1NC(=O)[C@@H]2C[C@H](C(=O)NCCCCCC[N+](C)(C)C)[C@H](c3cccc(OCCO)c3)N2C1=O :: 2.04
CN1C(=O)C2C=CC(C(O)C=Cc3ccc([N+](=O)[O-])cc3)N(N3CCCCC3)C2C1=O (stereo not given) :: 0.909
CO[C@H]1O[C@H](CO)[C@@H](OC(=O)Nc2ccccc2-c2ccccc2)[C@H](OC(=O)Nc2ccccc2-c2ccccc2)[C@H]1OC(=O)Nc1ccccc1-c1ccccc1 :: 1.61
CN(C)CCCC[C@@H]1NC(=O)[C@H]2C[C@@H](C(=O)NCCCCCNC(=O)CS)[C@@H](c3ccc(O)cc3)N2C1=O :: 0.0878
O=C(NCCN1CCOCC1)[C@@H]1c2ccccc2C(=O)N(Cc2cc(F)cc(C(F)(F)F)c2)[C@H]1c1ccc(CO)cc1 :: 1.76
Cc1ccc(S[C@]2(C(=O)NCCN3CCOCC3)CC(=O)N(C3CCCCC3)[C@@H]2c2ccc(CO)cc2)cc1 :: 0.318
O=C1C2C=CC(C(O)c3ccc(-c4ccccc4)s3)N(Nc3ccccc3F)C2C(=O)N1c1ccccc1 (stereo not given) :: 0.433
CCCNC(=O)[C@@]1(C)c2ccccc2C(=O)N(Cc2cc(C(F)(F)F)cc(C(F)(F)F)c2)[C@H]1c1ccc(CO)cc1 :: 0.103
C=CCNC(=O)[C@H]1[C@@H]2C(=O)O[C@@H](c3ccccc3)[C@@H](c3ccccc3)N2[C@@H](c2ccc(OCCO)cc2)[C@]12C(=O)N(C(=O)OCCOC)c1ccc(C#CC3(O)CCCCCC3)cc12 :: 1.65
COc1cc(NN2C(C(O)c3ccccc3)C=CC3C(=O)N(c4ccccc4)C(=O)C32)cc(OC)c1OC (stereo not given) :: 0.89
CCOC(=O)C=Cc1cccc(OC)c1O :: -0.8
O=C1O[C@H](c2ccccc2)[C@H](c2ccccc2)N2[C@H]1[C@@H](C(=O)Nc1nc3ccccc3s1)[C@]1(C(=O)Nc3ccc(C#CC4=CCCCC4)cc31)[C@H]2c1ccc(OCCO)cc1 :: 0.598
CCOC(=O)C[C@H]1[C@H](OC(=O)c2ccc(C(=O)c3ccccc3)cc2)[C@@H](NC(=O)c2ccc3ccccc3n2)c2cc(OCCCO)ccc2N1C(=O)c1ccc2ccccc2n1 :: -0.0692
C=C(CCCC)/C(=C/C[C@@H](OC(=O)c1ccncc1)c1ccc(CO)o1)c1cc(C(=O)OC)ccc1OC :: 1.97
CC(C)[Si]1(C(C)C)O[C@@H](c2ccccc2)c2cc(-c3ccc(-c4ccc(Cl)c(Cl)c4)o3)nc(CCc3ccccc3)c21 :: -0.74
C/C=C/[C@H](CCn1cc([C@H](O)c2ccccc2)nn1)[Si](C)(C)c1ccc(OC)cc1 :: -0.478
C=CCN1Cc2ccccc2C[C@]2(N=C(c3ccc(OCCCO)cc3)O[C@@H]2c2ccccc2)C1=O :: 1.81
COC(=O)[C@@]1(Cc2ccccc2)[C@H]2c3cc(C(=O)N(C)C)n(Cc4cc(F)c(F)c(F)c4)c3C[C@H]2CN1C(=O)c1ccccc1 :: -0.578
CCCC[C@@H]1C[C@H]1[C@@H](NC(=O)c1ccccc1)c1ccc(-c2ccccc2)cc1 :: -1.11
CN(C)CCCN1C(=O)[C@@]2(c3ccc([N+](=O)[O-])cc3)CC(=O)N(C3CCCCC3)[C@@H]2c2ccc(CO)cc21 :: -0.93
CC(c1ccccc1)C(O)C1C=CC2C(=O)N(Cc3ccccc3)C(=O)C2N1n1cnnc1 (stereo not given) :: -0.506
COc1ccc([Si](C)(C)[C@@H]2[C@@H](CCn3cc([C@H](O)c4ccccc4)nn3)O[C@]3(C(=O)N(C)c4ccccc43)[C@H]2C)cc1 :: -0.103
[N-]=[N+]=NCc1ccccc1C[C@]1(C(N)=O)N=C(c2ccc(OCCCO)cc2)O[C@H]1c1ccccc1N=[N+]=[N-] :: -0.413
CCCC[C@H]1C[C@@H]1[C@@H]1N(P(=O)(c2ccccc2)c2ccccc2)[C@](CO)(c2ccccc2)CC12CC2 :: -1.36
CN1C(=O)C2C=CC(C(O)c3ccc(Br)cc3)N(Nc3ccccc3)C2C1=O (stereo not given) :: -1.09
CCOC(=O)C1=CC[C@@H](c2cccc(Cl)c2)N(S(=O)(=O)c2ccc(C)cc2)[C@H]1c1ccc(C#N)cc1 :: 0.741
C=CCC(OC(C)=O)[C@@H]1[C@@H](N(Cc2cc3ccccc3o2)C(=O)c2ccc(-c3ccccc3)cc2)c2cc(OCCCO)ccc2N1C(=O)Cc1ccc2ccccc2c1 (stereo not given in full) :: -0.076
C=CCCN(CC#C[C@H]1Oc2ccccc2S(=O)(=O)N2CCC[C@@H]12)S(=O)(=O)c1ccc(C)cc1 :: 0.624
C=C(C(=O)CC[C@@H](OC(=O)c1cccnc1)c1ccc(OCCO)cc1)C(C)C :: 1.58
